Test system: HeLa
Test: Cytotoxicity against human HeLa cells after 72 hrs by MTT assay
Format: functional, cell-based
property name: pIC50
Remember, pIC50 is on a log scale: it is -log10 of the molar concentration.

smiles_data=COc1ccc(C(=O)O[C@H]2CC(C)=C[C@H](OC(C)=O)[C@]3(C)[C@@H]2[C@](O)(C(C)C)C[C@@H]3O)cc1 measurement=4.28

Lab entry: HeLa assay, compound `COc1ccc(C(=O)O[C@H]2C=C(C)C(=O)C[C@@]3(C)CC[C@@](O)(C(C)C)[C@H]23)cc1` , pIC50 = 4.53

* * *

Examples of compounds with documented pIC50 follow.
Tested on: HeLa
Assay: Cytotoxicity against human HeLa cells after 72 hrs by MTT assay
Format: functional, cell-based
Remember, pIC50 is on a log scale: it is -log10 of the molar concentration.

These recorded examples may help you get a feel for the data.
smiles_data=CC1=CC[C@]2(C)[C@@H]([C@@H](OC(=O)c3ccc(O)cc3)C1)[C@](O)(C(C)C)C[C@@H]2O property_name=pIC50 measurement=4.25
smiles_data=COc1ccc(C(=O)O[C@H]2CC(C)=C[C@H](OC(C)=O)[C@@]3(C)[C@@H](OC(C)=O)C[C@@](O)(C(C)C)[C@H]23)cc1 property_name=pIC50 measurement=4.84

# ---- query compound ----
The recorded pIC50 for `COc1ccc(C(=O)O[C@H]2CC(C)=C[C@H](O)[C@@]3(C)[C@@H](OC(C)=O)C[C@@](O)(C(C)C)[C@H]23)cc1` is 4.28

* * *

Examples of molecules with documented IC50 follow.
Test system: HeLa
Assay: Cytotoxicity against human HeLa cells after 72 hrs by MTT assay
Type: functional, cell-based
Please give a number only; it is taken to be in µM.

smiles_data=CC1=C[C@H](OC(=O)c2ccc(O)cc2)[C@@H]2[C@](C)(CC[C@@]2(O)C(C)C)CC1=O property_name=IC50 measurement=26.1

# ---- query molecule ----
The recorded IC50 for `C/C=C(/C)C(=O)O[C@H]1CC(C)=C[C@@H](OC(=O)/C(C)=C\C)[C@@]2(C)CC[C@@](O)(C(C)C)[C@H]12` is 4.4

* * *

Experiment: Cytotoxicity against human SEM cells after 72 hrs by MTT assay
Format: functional, cell-based
Criterion: IC50 strictly less than 30 µM. Met: YES. Not met: NO.

Example cases with answers are listed next.
smiles_data=CC1=C[C@H](OC(=O)c2ccc(O)cc2)[C@@H]2[C@](C)(CC[C@@]2(O)C(C)C)CC1=O classification=YES
smiles_data=COc1ccc(C(=O)O[C@H]2C=C(C)C(=O)C[C@@]3(C)CC[C@@](O)(C(C)C)[C@H]23)cc1 classification=YES
smiles_data=CC1=CC[C@]2(C)[C@@H]([C@@H](OC(=O)c3ccc(O)cc3)C1)[C@](O)(C(C)C)C[C@@H]2O classification=YES
smiles_data=COc1ccc(C(=O)OCC2=CC[C@@]3(C)CCC(C(C)C)=C3CC2)cc1 classification=YES
smiles_data=C/C=C(/C)C(=O)O[C@H]1CC(C)=C[C@@H](OC(=O)/C(C)=C\C)[C@@]2(C)CC[C@@](O)(C(C)C)[C@H]12 classification=YES

Task: Input `COc1ccc(C(=O)O[C@H]2CC(C)=C[C@H](OC(C)=O)[C@@]3(C)[C@@H](OC(C)=O)C[C@@](O)(C(C)C)[C@H]23)cc1` ; condition: IC50 strictly below 30 µM. Does it hold?
Result: YES

Task: Input `C=C1C[C@H](OC(=O)c2ccc(O)cc2)[C@@H]2[C@](C)(CC[C@@]2(O)C(C)C)C[C@@H]1O` ; condition: IC50 strictly below 30 µM. Does it hold?
Result: NO

Task: Input `COc1ccc(C(=O)O[C@H]2CC(C)=C[C@@H](OC(C)=O)[C@@]3(C)[C@@H](OC(C)=O)C[C@@](O)(C(C)C)[C@H]23)cc1` ; condition: IC50 strictly below 30 µM. Does it hold?
Result: NO

* * *

Assay: Cytotoxicity against human SEM cells after 72 hrs by MTT assay
Assay type: functional, cell-based
property name: pIC50
Remember, pIC50 is on a log scale: it is -log10 of the molar concentration.

These recorded examples may help you get a feel for the data.
compound="COc1ccc(C(=O)O[C@@H]2C=C(C)CC[C@]3(O)[C@H](C(C)C)CC(=O)[C@]23C)cc1 [SIOL ANISATE]" measurement=4.62
compound=COc1ccc(C(=O)OCC2=CC[C@@]3(C)CC[C@]4(C(C)C)O[C@]34CC2)cc1 measurement=4.08
compound=COc1ccc(C(=O)O[C@H]2CC(C)=C[C@H](O)[C@@]3(C)[C@@H](OC(C)=O)C[C@@](O)(C(C)C)[C@H]23)cc1 measurement=4.74

# ---- query compound ----
The recorded pIC50 for `COc1ccc(C(=O)O[C@H]2CC(C)=C[C@H](OC(C)=O)[C@]3(C)[C@@H]2[C@](O)(C(C)C)C[C@@H]3O)cc1` is 4.58

* * *

Examples of compounds with documented pIC50 follow.
Test: Cytotoxicity against human RS4:11 cells after 72 hrs by MTT assay
Assay type: functional, cell-based
Settings: RS4-11, 72 h
Remember, pIC50 is on a log scale: it is -log10 of the molar concentration.

The recorded pIC50 for `COc1ccc(C(=O)OCC2=CC[C@@]3(C)CC[C@]4(C(C)C)O[C@]34CC2)cc1` is 4.22

The recorded pIC50 for `COc1ccc(C(=O)O[C@H]2CC(C)=C[C@@H](OC(C)=O)[C@@]3(C)[C@@H](OC(C)=O)C[C@@](O)(C(C)C)[C@H]23)cc1` is 4.37

The recorded pIC50 for `COc1ccc(C(=O)O[C@H]2CC(C)=C[C@H](O)[C@@]3(C)[C@@H](OC(C)=O)C[C@@](O)(C(C)C)[C@H]23)cc1` is 4.46

The recorded pIC50 for `COc1ccc(C(=O)O[C@H]2CC(C)=C[C@@H](O)[C@@]3(C)[C@@H](OC(C)=O)C[C@@](O)(C(C)C)[C@H]23)cc1` is 4.15
